molecular target: LasR (Pseudomonas aeruginosa, UniProt P25084); construct: expressed in transfected cells; host or cells: Escherichia coli DH5α (pJN105L+pSC11); test: LasR agonism assay, E. coli DH5α (pJN105L+pSC11) β-galactosidase reporter strain; type: cell-based, P. aeruginosa; conditions: thiolactone libraries; E. coli; synthetic ligands tested at 10 μM
Sequence (P25084 whole entry): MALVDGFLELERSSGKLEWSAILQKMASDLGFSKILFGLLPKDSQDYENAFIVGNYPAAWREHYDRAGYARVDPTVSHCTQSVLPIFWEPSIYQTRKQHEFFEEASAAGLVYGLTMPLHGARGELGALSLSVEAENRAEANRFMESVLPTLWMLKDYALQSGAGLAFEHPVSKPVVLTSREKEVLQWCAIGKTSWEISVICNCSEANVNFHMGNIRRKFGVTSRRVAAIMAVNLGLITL
quantity.name: Act % (%)
Write the value in % as a bare number.

>  <molecule>
O=C(Cc1ccc(Br)cc1)N[C@H]1CCSC1=O [Compound 18E]

>  <Act %, %>
8

$$$$
>  <molecule>
O=C(CCc1c[nH]c2ccccc12)NC1CCSC1=O (racemic) [Compound 22]

>  <Act %, %>
4

$$$$
>  <molecule>
O=C(Cc1ccccc1)NC1CCSC1=O (racemic) [Compound 21]

>  <Act %, %>
2

$$$$

Give recorded Act %. CCCC(=O)N[C@H]1CCSC1=O [Compound 29E]
4

Give recorded Act %. CCCCCCCCCC(=O)CC(=O)N[C@H]1CCSC1=O [Compound 1E]
102

Give recorded Act %. CCCCCCCCCCCC(=O)N[C@H]1CCSC1=O [Compound 25E]
4

Give recorded Act %. O=C(Cc1ccc(-c2ccccc2)cc1)N[C@H]1CCSC1=O [Compound 23E]
0

Give recorded Act %. O=C(Cc1cccc([N+](=O)[O-])c1)N[C@H]1CCSC1=O [Compound 19E]
81

Give recorded Act %. CCCCCCCC(=O)N[C@H]1CCSC1=O [Compound 26E]
85

Give recorded Act %. O=C(Cc1ccc(-c2ccccc2)cc1)NC1CCSC1=O (racemic) [Compound 23]
9

The origin of these recorded values is patent US9758472B2.
